# STUDY_TARGET: T1, macaca GM-CSF (Macaca mulatta (identical in Macaca …, UniProt Q0MUT8 18-144 (Chlorocebus aethiops entry), limits assumed))
# T1 chain: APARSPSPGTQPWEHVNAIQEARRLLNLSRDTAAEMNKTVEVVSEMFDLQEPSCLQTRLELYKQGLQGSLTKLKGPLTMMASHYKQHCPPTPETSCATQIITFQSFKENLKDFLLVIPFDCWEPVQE
# EXPERIMENT: cell-based or functional assay
METRIC: Fold macaca/human I117 (IC50, TF-1 proliferation) (fold)
Answer with a number only, understood to be in fold.

BINDER | UNIT_OF_MEASURE | VALUE_REPORTED
humanized parental anti-GM-CSF 4K21 VH3-07.1AL+VK2-A3.2 hIgG1K antibody (MSB0010439) (antibody, V domains shown, Human IgG1 kappa; also called humanized parental 4K21 hVH hVL; parental 4K21) VH: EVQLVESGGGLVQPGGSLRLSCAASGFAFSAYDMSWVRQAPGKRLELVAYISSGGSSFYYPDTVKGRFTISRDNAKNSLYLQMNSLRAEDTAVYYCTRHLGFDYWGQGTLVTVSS VL: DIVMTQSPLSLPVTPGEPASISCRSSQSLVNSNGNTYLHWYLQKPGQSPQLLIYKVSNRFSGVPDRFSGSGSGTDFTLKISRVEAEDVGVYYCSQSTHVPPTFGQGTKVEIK | fold | 6.6
MSB0010602 4K21 (4K21 hVH S55K-T62S hVL S27eY-N28I-H34S-N53R-H93Y) (antibody, V domains shown, IgG) VH: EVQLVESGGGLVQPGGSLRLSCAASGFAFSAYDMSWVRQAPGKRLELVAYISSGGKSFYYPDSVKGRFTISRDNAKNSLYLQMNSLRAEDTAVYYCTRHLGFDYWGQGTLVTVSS VL: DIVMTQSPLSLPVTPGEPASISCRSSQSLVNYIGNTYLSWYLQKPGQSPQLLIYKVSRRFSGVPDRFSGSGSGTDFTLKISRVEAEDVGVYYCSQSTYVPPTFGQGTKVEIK | fold | 1.2
MSB0010600 4K21 (4K21 hVH S55R-T62S hVL S27eY-N28I-H34S-N53R-H93Y) (antibody, V domains shown) VH: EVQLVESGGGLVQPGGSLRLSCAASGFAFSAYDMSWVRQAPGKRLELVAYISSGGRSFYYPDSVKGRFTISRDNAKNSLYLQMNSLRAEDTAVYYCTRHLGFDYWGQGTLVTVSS VL: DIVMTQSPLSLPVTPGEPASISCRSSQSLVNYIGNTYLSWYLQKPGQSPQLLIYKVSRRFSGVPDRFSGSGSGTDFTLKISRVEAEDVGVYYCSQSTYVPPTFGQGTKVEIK | fold | 1.1
anti-GM-CSF 4K21 hIgG1K antibody (MSB0010259), recombinant chimeric 4K21 (antibody, V domains shown, Murine variable domains fused to human constant IgG1 heavy chain and kappa light chain domains) VH: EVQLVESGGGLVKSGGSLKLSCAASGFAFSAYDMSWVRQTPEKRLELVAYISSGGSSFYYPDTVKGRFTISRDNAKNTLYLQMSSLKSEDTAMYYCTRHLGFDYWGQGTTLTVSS VL: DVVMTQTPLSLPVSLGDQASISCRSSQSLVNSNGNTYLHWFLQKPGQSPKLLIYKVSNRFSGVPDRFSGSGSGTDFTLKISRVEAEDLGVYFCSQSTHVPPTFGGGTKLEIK | fold | 9.3
MSB0010603 4K21 (4K21 hVH S56V-T62S hVL N28I-H34S-N53R-H93Y) (antibody, V domains shown, IgG) VH: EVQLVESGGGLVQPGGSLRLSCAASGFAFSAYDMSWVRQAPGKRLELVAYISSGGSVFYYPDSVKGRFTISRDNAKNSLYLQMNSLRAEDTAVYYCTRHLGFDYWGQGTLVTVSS VL: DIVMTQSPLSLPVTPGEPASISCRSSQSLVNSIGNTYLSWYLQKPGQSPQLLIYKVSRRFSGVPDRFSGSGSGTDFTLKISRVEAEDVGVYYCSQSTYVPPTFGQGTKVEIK | fold | 2.1

Supply reported Fold macaca/human I117 (IC50, TF-1 proliferation) belonging to this binder: humanized parental 4K21 hVH hVL + H93Y (MS100305-A) (antibody, V domains shown) VH: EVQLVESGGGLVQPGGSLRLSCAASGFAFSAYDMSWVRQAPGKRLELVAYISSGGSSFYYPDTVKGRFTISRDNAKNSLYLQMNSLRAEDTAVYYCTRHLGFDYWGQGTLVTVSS VL: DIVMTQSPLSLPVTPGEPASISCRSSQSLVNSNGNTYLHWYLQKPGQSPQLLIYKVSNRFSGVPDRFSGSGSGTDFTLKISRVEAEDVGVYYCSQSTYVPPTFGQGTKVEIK
3.2
